Source listed as PubChem BioAssay AID857.

Target: D(1B) dopamine receptor (Homo sapiens) (UniProt P21918)
Sequence (P21918 whole entry, looked up): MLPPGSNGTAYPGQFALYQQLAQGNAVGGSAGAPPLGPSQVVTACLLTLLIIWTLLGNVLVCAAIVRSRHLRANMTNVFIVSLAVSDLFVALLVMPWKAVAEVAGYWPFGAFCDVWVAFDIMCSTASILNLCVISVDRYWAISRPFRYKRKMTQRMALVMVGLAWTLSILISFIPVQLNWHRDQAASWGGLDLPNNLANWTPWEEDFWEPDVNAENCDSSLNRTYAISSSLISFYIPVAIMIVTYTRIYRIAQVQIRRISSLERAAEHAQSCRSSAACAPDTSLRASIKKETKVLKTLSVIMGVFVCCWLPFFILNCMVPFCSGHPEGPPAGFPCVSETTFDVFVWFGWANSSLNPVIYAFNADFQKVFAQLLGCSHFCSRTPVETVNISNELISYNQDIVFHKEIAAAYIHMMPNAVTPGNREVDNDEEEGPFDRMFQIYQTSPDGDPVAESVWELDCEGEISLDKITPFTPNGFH
Experiment: D5 receptor allosteric modulators, concentration-response – cell-based, HEK293, CRE-luciferase, luminescence, EC30 dopamine, selectivity assay for D1 allosteric modulator project, dose response (AID 857);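 further: HEK 293 cells expressing human D5 with a CRE-driven luciferase reporter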
Calls of active or inactive are those of the source.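 How the source made its calls: active means a full or partial dose-response curve in at least two of three replicate runs; inactive means the rest.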
readout.name: outcome

Some entries whose results are on file:
{"compound": "CCCCn1c(O)c(C(C)=NCc2ccc(F)cc2)c(=O)[nH]c1=O", "outcome": "inactive"}
{"compound": "COc1ccc(-c2noc(-c3ccco3)n2)cc1OC", "outcome": "inactive"}
{"compound": "Cc1cc(N)n(-c2nc(-c3cccnc3)nc3ccccc23)n1", "outcome": "inactive"}
{"compound": "O=C(Nc1cc(Cl)ccc1N1CCOCC1)c1cnccn1", "outcome": "inactive"}
{"compound": "CSc1nc2c(c(=O)n1-c1ccccc1)SCC2", "outcome": "inactive"}
{"compound": "O=C(C1CCC1)N1CCc2cc(S(=O)(=O)NCc3cccnc3)ccc21", "outcome": "inactive"}
{"compound": "CCCn1c(=NC(C)=O)c(C(=O)OCC)cc2c(=O)n3ccccc3nc21", "outcome": "inactive"}
{"compound": "O=C1c2ccccc2-c2onc3ccc(NCCCn4ccnc4)c1c23", "outcome": "inactive"}

Q: // lookup outcome for C=CCn1c(SCc2nc3c(c(=O)[nH]c(=O)n3CCCC)n2CCC)nnc1-c1ccccc1
Ans: inactive

Q: Entry under review: CC(=O)Nc1nc2n(n1)C(c1ccccc1)C=C(c1ccccc1)N2 (stereo unspecified) . Reported outcome?
Ans: inactive

Q: Recorded outcome for COC(=O)c1ccc(CSc2nc3c(cnn3-c3ccc(F)cc3)c(=O)[nH]2)o1 , please?
Ans: inactive

###

Target: D(1B) dopamine receptor (Homo sapiens)
Assay: D5 receptor allosteric modulators, concentration-response – cell-based, HEK293, CRE-luciferase, luminescence, EC30 dopamine, selectivity assay for D1 allosteric modulator project, dose response (AID 857);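 further: HEK 293 cells expressing human D5 with a CRE-driven luciferase reporter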
Active and inactive are the calls of the source.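 Rule for the calls: active = a full or partial dose-response curve in at least two of three replicate runs; inactive = the rest.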
readout.name: outcome

{"compound": "CC(C)OC(=O)CSc1nnc(-c2cnccn2)n1-c1ccccc1", "outcome": "inactive"}
{"compound": "COc1ccc(-n2nc3ccccc3n2)cc1", "outcome": "inactive"}
{"compound": "CCC(C)Sc1nc2c(c(=O)n1C)SC(C)C2 (stereo unspecified)", "outcome": "inactive"}
{"compound": "CCn1nc(C(=O)NC2=NCCS2)c2ccccc2c1=O", "outcome": "inactive"}
{"compound": "Cc1cc(C)n(CC(=O)n2c3c(c4ccccc42)CCCC3)n1", "outcome": "inactive"}

Q: What does the data say about its outcome? Entry: CCOC(=O)c1ccc(N2CN=C3SCC(=O)N3C2)cc1
Ans: inactive

###

Target: D(1B) dopamine receptor (Homo sapiens)
Assay: D5 receptor allosteric modulators, concentration-response – cell-based, HEK293, CRE-luciferase, luminescence, EC30 dopamine, selectivity assay for D1 allosteric modulator project, dose response (AID 857);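 further: HEK 293 cells expressing human D5 with a CRE-driven luciferase reporter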
readout.name: EC50

{"compound": "COCc1cc(C)nc2sc(C(=O)N3CCN(c4ccccc4)CC3)c(N)c12", "EC50": "212 nM"}
{"compound": "CCOc1ccc(-c2nnn(CC(=O)NCc3ccc(OC)cc3)n2)cc1OCC", "EC50": "473 nM"}
{"compound": "Cc1cc(C)n(-c2nc3ccccc3nc2Nc2ccc(CC(=O)O)cc2)n1", "EC50": "1110 nM"}
{"compound": "Cc1cc(Br)c2c(c1)=C(c1sc(N3CCCCCC3)nc1O)C(=O)N=2", "EC50": "1030 nM"}

Q: Endpoint output: EC50 of Cc1c(-c2ccccc2)nc(N)c(C#N)c1-c1ccco1 . Value?
Ans: 2010 nM

Q: Given the compound COc1ccc(Cl)cc1C(=O)CSc1nnnn1C1CCCC1 , what is its reported EC50?
Ans: 661 nM

Q: Recorded EC50 for CCC(=O)NC(=Nc1nc2ccccc2s1)NC(=O)CC , please?
Ans: 1900 nM

Q: // query EC50 value for entry COc1ccc2cc3c(N)nn(C(=O)Cc4ccccc4OC)c3nc2c1
Ans: 635 nM

Q: Would you kindly share the measured EC50 for Cc1c(C(=O)OCC(C)C)[nH]c2c1C(=O)CC(c1ccco1)C2 (stereo not given) ?
Ans: 1750 nM

Q: So what's the measured EC50 for this one? CCCCn1c(=NC(=O)c2cccnc2)c(C(=O)OCC)cc2c(=O)n3ccccc3nc21
Ans: 1070 nM
